Biological target: DCC-PfSSB (wild-type PfSSB labeled with IDCC) (Plasmodium falciparum, UniProt Q8I415 77-284)
Experiment: stopped-flow kinetics (koff 0.014 s-1 / kon 199 uM-1s-1); low salt, 20 mM NaCl; koff by wtSSB displacement; High salt buffer (composition not in material) or low salt buffer (20 mM NaCl); pH and temperature not in material
Details: protein: recombinant; tags: DCC (diethylaminocoumarin) at C93; chain copies: 4; single strand
property measured: Kd (nM)
Please give a number only; it is taken to be in nM.

Summary for this binder, dT70 (ssDNA) DNA: TTTTTTTTTTTTTTTTTTTTTTTTTTTTTTTTTTTTTTTTTTTTTTTTTTTTTTTTTTTTTTTTTTTTTT : Kd is 0.07

Every entry's value here was drawn from paper PMC5821389.
